- Test System: human A2a adenosine receptor (Homo sapiens (Human))
- Sequence (P29274 whole entry): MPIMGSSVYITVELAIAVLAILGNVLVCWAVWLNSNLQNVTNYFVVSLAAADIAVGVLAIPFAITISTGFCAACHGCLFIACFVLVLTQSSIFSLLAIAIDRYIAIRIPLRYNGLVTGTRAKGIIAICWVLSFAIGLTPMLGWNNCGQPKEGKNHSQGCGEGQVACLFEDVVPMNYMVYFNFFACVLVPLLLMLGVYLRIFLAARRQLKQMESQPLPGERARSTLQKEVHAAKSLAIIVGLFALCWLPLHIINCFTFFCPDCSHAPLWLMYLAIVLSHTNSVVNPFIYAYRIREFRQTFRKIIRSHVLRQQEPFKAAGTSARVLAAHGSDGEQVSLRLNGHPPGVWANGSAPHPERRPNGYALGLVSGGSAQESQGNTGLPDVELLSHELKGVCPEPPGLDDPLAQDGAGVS
- Experiment: A2a binding affinity using SPA, Method (B)
- Cond: Method (B): [3H]SCH58261 SPA
- Procedure: The A2a receptor affinity binding assay measured the amount of binding of a tritiated ligand with high affinity for the A2a adenosine receptor to membranes made from HEK293 or CHO cells recombinantly expressing the human A2a adenosine receptor, in the presence of varying concentrations of a compound of the invention. […] Binding affinity using SPA was conducted as follows. […] After normalization to total and non-specific binding, the percent effect at each compound concentration was calculated. […]
pIC50: −log10 of the molar value.
Measured Endpoint: pIC50

A: Cc1nc2c(s1)CN(CCc1nc3c(C)c(-c4ncco4)nc(N)n3n1)CC2
B: Cc1cccc(Cc2nc3c(C)c(-c4ncco4)nc(N)n3n2)n1
Inquiry: Identify the entry with the smaller pIC50: A or B . Identify your selection by its label.
Reply text: A

I: Cc1c(-c2ncco2)nc(N)n2nc(Cc3ccccn3)nc12
II: Cc1c(-c2ncco2)nc(N)n2nc(Cc3cc[nH]n3)nc12
Inquiry: Identify the entry with the smaller pIC50: I or II . Identify your selection by its label.
Reply text: II

I: Cc1nc2c(s1)CN(CCc1nc3c(C)c(-c4cnco4)nc(N)n3n1)CC2
II: Cc1cccnc1Cc1nc2c(C)c(-c3ncco3)nc(N)n2n1
Inquiry: Identify the entry with the smaller pIC50: I or II . Identify your selection by its label.
Reply text: I
(I: 8.18, II: 9.22)
